# Assayed System: Human PAD4 (enzyme inhibition assays) (human, UniProt Q9UM07 1-663, limits assumed)
# Sequence (Q9UM07 whole entry): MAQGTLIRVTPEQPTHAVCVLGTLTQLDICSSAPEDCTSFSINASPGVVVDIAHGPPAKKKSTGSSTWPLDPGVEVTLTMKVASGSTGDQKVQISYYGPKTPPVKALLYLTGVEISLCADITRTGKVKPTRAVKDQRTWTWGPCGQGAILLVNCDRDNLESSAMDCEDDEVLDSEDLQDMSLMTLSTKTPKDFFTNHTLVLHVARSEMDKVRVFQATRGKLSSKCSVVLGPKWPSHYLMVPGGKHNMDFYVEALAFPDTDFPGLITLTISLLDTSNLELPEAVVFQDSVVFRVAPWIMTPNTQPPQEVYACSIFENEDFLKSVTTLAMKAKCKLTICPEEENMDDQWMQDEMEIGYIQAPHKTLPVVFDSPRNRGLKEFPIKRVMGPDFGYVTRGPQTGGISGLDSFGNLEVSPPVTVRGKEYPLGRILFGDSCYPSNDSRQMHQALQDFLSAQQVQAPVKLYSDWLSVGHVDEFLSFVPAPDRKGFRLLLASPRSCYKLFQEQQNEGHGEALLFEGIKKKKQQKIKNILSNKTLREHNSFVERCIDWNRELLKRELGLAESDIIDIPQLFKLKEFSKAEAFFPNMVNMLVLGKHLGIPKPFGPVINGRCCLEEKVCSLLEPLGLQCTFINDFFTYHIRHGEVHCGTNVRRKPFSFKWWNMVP
# Assay Method Text: cell-based or functional assay
Quick list: IC50, human PAD4 enzyme inhibitory activity (citrullination of BAEE, colorimetric) per entry.
Output spec: scalar in nM, unitless text.

Examples from the recorded data:
• Lib2(4R)-1-47 (antibody, V domains shown, Tested as full-length antibody (human IgG1/human k) from Expi293; also called Lib(4R)-1-47) VH: EVQLLESGGGLVQPGGSLRLSCAASGFTFSTYAMGWVRQAPGKGLEFVAAIRNDGSWTGYGTPYKTRFTISRDNSKNTLYLQMNSLRAEDTAVYYCAKYTGSSGGSIGAWGQGTLVTVSS VL: SYELTQPPSVSVSPGQTARITCSGGNRNYYYGWYQQKPGQAPVTVIYANDKRPSGIPERFSGSNSGSTTTLTISGVQAEDEADYYCGTATTGKYVFGGGTKLTVLG = 9.6
• Lib2(5R)-2-25 (antibody, human IgG1, lambda, V domains shown, Tested as full-length antibody (human IgG1/human k) from Expi293) VH: EVQLLESGGGLVQPGGSLRLSCAASGFTFSTYAMGWVRQAPGKGLEFVAAIRNDGSWTGYPPPLKGRFTISRDNSKNTLYLQMNSLRAEDTAVYYCAKYTGSSGGSIGAWGQGTLVTVSS VL: SYELTQPPSVSVSPGQTARITCSGGNRNYYYGWYQQKPGQAPVTVIYANDKRPSGIPERFSGSNSGSTTTLTISGVQAEDEADYYCGTAYTGKYVFGGGTKLTVLG = 8.3
• anti-PAD4 antibody 3-2-37 (antibody, human IgG1, lambda, V domains shown, Lib1(6R)-2-37 with the 84th asparagine of the heavy chain substituted with serine; full-length IgG from ExpiCHO) VH: EVQLLESGGGLVQPGGSLRLSCAASGFTFSTYAMGWVRQAPGKGLEFVAAIRNDGSWTGIGYNQKSRFTISRDNSKNTLYLQMSSLRAEDTAVYYCGKYTGSSGGSIGAWGQGTLVTVSS VL: SYELTQPPSVSVSPGQTARITCSGGNRNYYYGWYQQKPGQAPVTVIYANDKRPSGIPERFSGSNSGSTTTLTISGVQAEDEADYYCGTALTGKYVFGGGTKLTVLG = 15.3
• anti-PAD4 antibody 2-1-47 (antibody, human IgG1, lambda, V domains shown, Lib2(4R)-1-47 with the 84th asparagine of the heavy chain substituted with serine; full-length IgG from ExpiCHO) VH: EVQLLESGGGLVQPGGSLRLSCAASGFTFSTYAMGWVRQAPGKGLEFVAAIRNDGSWTGYGTPYKTRFTISRDNSKNTLYLQMSSLRAEDTAVYYCAKYTGSSGGSIGAWGQGTLVTVSS VL: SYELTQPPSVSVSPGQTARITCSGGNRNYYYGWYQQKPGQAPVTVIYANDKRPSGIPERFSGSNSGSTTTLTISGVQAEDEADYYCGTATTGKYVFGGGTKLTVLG = 12.2

// next entry
Query: Look up IC50, human PAD4 enzyme inhibitory activity (citrullination of BAEE, colorimetric): Lib1(6R)-2-37 (antibody, human IgG1, lambda, V domains shown, Tested as full-length antibody (human IgG1/human k) from Expi293) VH: EVQLLESGGGLVQPGGSLRLSCAASGFTFSTYAMGWVRQAPGKGLEFVAAIRNDGSWTGIGYNQKSRFTISRDNSKNTLYLQMNSLRAEDTAVYYCGKYTGSSGGSIGAWGQGTLVTVSS VL: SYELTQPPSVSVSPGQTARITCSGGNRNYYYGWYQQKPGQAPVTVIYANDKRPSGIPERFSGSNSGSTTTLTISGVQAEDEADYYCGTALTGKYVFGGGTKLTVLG
Reply: 13.4
